Biological target: T1, VEGF (Example 4) (UniProt P15692 27-191)
T1 chain: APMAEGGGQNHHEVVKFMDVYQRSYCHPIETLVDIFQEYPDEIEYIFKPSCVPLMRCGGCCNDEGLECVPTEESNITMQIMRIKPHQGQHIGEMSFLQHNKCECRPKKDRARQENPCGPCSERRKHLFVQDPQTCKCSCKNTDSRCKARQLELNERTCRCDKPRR
Assay: binding
attributeMeasured: EC50 (nM)
State just the number; it will be interpreted in nM.

Requested field: EC50. Item: 7 (antibody, V domains shown) V domain 1: PQPVLHQPPAMSSALGTTIRLTCTLRNDHDIGVYSVYWYQQRPGHPPRFLLRYFSQSDKSQGPQVPPRFSGSKDVARNRGYLSISELQPEDEAMYYCAMGARSSVTHVFGSGTQLTVLS V domain 2: QPVLHQPPAMSSALGTTIRLTCTLRNDHDIGVYSVYWYQQRPGHPPRFLLRYFSQSDKSQGPQVPPRFSGSKDVARNRGYLSISELQPEDEAMYYCAMGARSSVTHVFGSGTQLTVLS
0.013

What EC50 value was documented for this binder, 3 (antibody, V domains shown) V domain 1: FQPVLHQPPAMSSALGTTIRLTCTLRNDHDIGVYSVYWYQQRPGHPPRFLLRYFSQSDKSQGPQVPPRFSGSKDVARNRGYLSISELQPEDEAMYYCAMGARSSVTHVFGSGTQLTVLS V domain 2: QPVLHQPPAMSSALGTTIRLTCTLRNDHDIGVYSVYWYQQRPGHPPRFLLRYFSQSDKSQGPQVPPRFSGSKDVARNRGYLSISELQPEDEAMYYCAMGARSSVTHVFGSGTQLTVLS ?
0.015

Field request: EC50 | item: 2 (antibody, V domains shown) V domain 1: FQPVLHQPPAMSSALGTTIRLTCTLRNDHDIGVYSVYWYQQRPGHPPRFLLRYFSQSDKSQGPQVPPRFSGSKDVARNRGYLSISELQPEDEAMYYCAMGARSSVTHVFGSGTQLTVLS V domain 2: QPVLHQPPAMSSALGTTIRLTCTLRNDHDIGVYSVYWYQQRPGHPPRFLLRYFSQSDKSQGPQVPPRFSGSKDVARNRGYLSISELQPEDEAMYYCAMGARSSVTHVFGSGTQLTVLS
0.016
